We begin with a simple list: items and their reported pIC50.
- TARGET OR SYSTEM: human PDE4D catalytic domain (UniProt no. Q08499 [S380-L740]) (Homo sapiens (Human), UniProt Q08499)
- Sequence (Q08499 380-740): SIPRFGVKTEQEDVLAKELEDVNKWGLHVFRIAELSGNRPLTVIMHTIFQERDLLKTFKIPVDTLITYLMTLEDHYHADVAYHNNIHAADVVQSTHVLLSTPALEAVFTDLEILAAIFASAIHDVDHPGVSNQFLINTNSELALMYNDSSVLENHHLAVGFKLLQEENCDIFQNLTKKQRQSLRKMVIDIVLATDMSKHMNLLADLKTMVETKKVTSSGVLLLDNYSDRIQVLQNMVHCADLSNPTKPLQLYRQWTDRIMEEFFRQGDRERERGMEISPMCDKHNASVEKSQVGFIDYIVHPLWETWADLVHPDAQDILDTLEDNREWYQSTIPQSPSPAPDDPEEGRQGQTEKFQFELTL
- ASSAY PROCEDURE: PDE4 assay (TR-FRET, cAMP hydrolysis)
- CONDITION LABEL: read-out: PDE4 IC50 range
pIC50: −log10 of the molar value.
PROPERTY MEASURED: pIC50

INSERT INTO measurements (molecule, property_measured, result) VALUES
  ('Cc1cc(C(=O)OC2CN(c3nc4c(c(N(C)C5CCOCC5)n3)[S+](O)CC4)C2)cc(C)n1 (stereo not drawn)', 'pIC50', '> 7.00'),
  ('CN(c1nc(N2CC(OC(=O)c3cnsc3)C2)nc2c1[S+]([O-])CC2)C1CCOCC1 (stereo not drawn) [Example 3]', 'pIC50', '> 7.00'),
  ('CN(c1nc(N2CC(OC(=O)[C@H]3CC[C@H](O)CC3)C2)nc2c1[S+](O)CC2)C1CCOCC1 (stereo partly drawn)', 'pIC50', '> 7.00'),
  ('CN(c1nc(N2CC(OC(=O)c3cnsc3)C2)nc2c1[S+]([O-])CC2)C1CCOCC1 (stereo in doubt) [Example 4]', 'pIC50', '> 7.00'),
  ('CC(=O)N1CC[C@H](Nc2nc(N3CC(OC(=O)c4cscn4)C3)nc3c2[S@+](O)CC3)C1', 'pIC50', '> 7.00'),
  ('CN(c1nc(N2CC(OC(=O)c3ccccc3)C2)nc2c1[S+]([O-])CC2)C1CCOCC1 (stereo not drawn)', 'pIC50', '> 7.00'),
  ('Cc1ccccc1C(=O)OC1CN(c2nc3c(c(N(C)C4CCOCC4)n2)[S+]([O-])CC3)C1 (stereo not drawn)', 'pIC50', '> 7.00'),
  ('O=C(OC1CN(c2nc3c(c(NC4CC5(COC5)C4)n2)[S+](O)CC3)C1)c1cscn1 (stereo not drawn)', 'pIC50', '> 7.00'),
  ('O=C(OC1CN(c2nc3c(c(NC4CC5(COC5)C4)n2)[S@+]([O-])CC3)C1)c1cscn1 (single isomer, unassigned)', 'pIC50', '6.30 to 7.00'),
  ('CCN(c1nc(N2CC(OC(=O)c3cscn3)C2)nc2c1[S+]([O-])CC2)C1CCOCC1 (stereo not drawn)', 'pIC50', '6.30 to 7.00'),
  ('CN(c1nc(N2CC(OC(=O)c3ccc(C(=O)N4CCOCC4)cc3)C2)nc2c1[S+](O)CC2)C1CCOCC1 (stereo not drawn)', 'pIC50', '> 7.00'),
  ('CCS(=O)(=O)c1cccc(C(=O)OC2CN(c3nc4c(c(N(C)C5CCOCC5)n3)[S+]([O-])CC4)C2)c1 (stereo not drawn)', 'pIC50', '> 7.00'),
  ('CCc1cc(C(=O)OC2CN(c3nc4c(c(N(C)C5CCOCC5)n3)[S+]([O-])CC4)C2)nn1C (stereo not drawn)', 'pIC50', '> 7.00'),
  ('CNS(=O)(=O)c1ccc(C(=O)OC2CN(c3nc4c(c(N(C)C5CCOCC5)n3)[S+]([O-])CC4)C2)cc1 (stereo not drawn)', 'pIC50', '> 7.00'),
  ('CCN(c1nc(N2CC(OC(=O)c3cnsc3)C2)nc2c1[S+]([O-])CC2)C1CCOCC1 (stereo not drawn)', 'pIC50', '6.30 to 7.00'),
  ('Cc1ncc(C(=O)OC2CN(c3nc4c(c(N(C)C5CCOCC5)n3)[S+]([O-])CC4)C2)cn1 (stereo not drawn)', 'pIC50', '> 7.00'),
  ('CN(c1nc(N2CC(OC(=O)c3cscn3)C2)nc2c1[S+]([O-])CC2)C1CCOCC1 (stereo in doubt) [Example 6]', 'pIC50', '> 7.00'),
  ('CN(c1nc(N2CC(OC(=O)c3cscn3)C2)nc2c1[S+]([O-])CC2)C1CCOCC1 (stereo not drawn) [Example 5]', 'pIC50', '> 7.00'),
  ('CN(c1nc(N2CC(OC(=O)c3cccnc3)C2)nc2c1[S@+](O)CC2)C1CCOCC1', 'pIC50', '6.30 to 7.00'),
  ('O=C(OC1CN(c2nc3c(c(NC4CCOCC4)n2)[S@@+]([O-])CC3)C1)c1cscn1', 'pIC50', '> 7.00'),
  ('COc1ccc(C(=O)OC2CN(c3nc4c(c(N(C)C5CCOCC5)n3)[S+]([O-])CC4)C2)cc1 (stereo not drawn)', 'pIC50', '> 7.00'),
  ('O=C(OC1CN(c2nc3c(c(NC4CCOCC4)n2)[S@@+]([O-])CC3)C1)C1CCOCC1', 'pIC50', '6.30 to 7.00'),
  ('CN(c1nc(N2CC(OC(=O)C3CCOCC3)C2)nc2c1[S+]([O-])CC2)C1CCOCC1 (stereo not drawn)', 'pIC50', '> 7.00'),
  ('CN(c1nc(N2CC(OC(=O)CCS(C)(=O)=O)C2)nc2c1[S+]([O-])CC2)C1CCOCC1 (stereo not drawn)', 'pIC50', '6.30 to 7.00'),
  ('O=C(OC1CN(c2nc3c(c(NC4CC5(COC5)C4)n2)[S+]([O-])CC3)C1)c1cnsc1 (stereo in doubt) [Example 69]', 'pIC50', '6.30 to 7.00'),
  ('CCS(=O)(=O)c1ccc(C(=O)OC2CN(c3nc4c(c(N(C)C5CCOCC5)n3)[S+]([O-])CC4)C2)cc1 (stereo not drawn)', 'pIC50', '> 7.00'),
  ('CN(c1nc(N2CC(OC(=O)c3ccccc3F)C2)nc2c1[S+]([O-])CC2)C1CCOCC1 (stereo not drawn)', 'pIC50', '> 7.00'),
  ('CN(c1nc(N2CC(OC(=O)C3CC(O)C3)C2)nc2c1[S+]([O-])CC2)C1CCOCC1 (stereo not drawn)', 'pIC50', '6.30 to 7.00'),
  ('O=C(OC1CN(c2nc3c(c(NC4CC5(COC5)C4)n2)[S+]([O-])CC3)C1)c1cnsc1 (racemic) [Example 65]', 'pIC50', '> 7.00'),
  ('CSCCC(=O)OC1CN(c2nc3c(c(N(C)C4CCOCC4)n2)[S+]([O-])CC3)C1 (stereo not drawn)', 'pIC50', '> 7.00');
